Biological target: c-Src SH2;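 note: peptide library displayed on the E. coli surface as eCPX fusions, selected cells deep-sequenced, score is each peptide's frequency after selection divided by its frequency in the input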
Assay: SH2 binding enrichment of the phosphorylated peptide, bacterial display (enrichment ratio); higher = better substrate or ligand; peptides without Tyr show the background
measured-endpoint: SH2 binding enrichment

# example entries with known answers
VPLLEYFRDIF [CDAN1_Y712_YF] : 1.13
FLTQHYDAEPQ [ANG_Y38_K41E] : 0.612
DRLPSYLDKVR [KRT12_Y139_A137P] : 0.671

I = ILIFHYAKGQP [MPZ_Y82_S78L]
II = QRVLLYVRRET [GRHL3_Y518]
III = FTNRNYDLDFD [MYC_Y12_YF]
Q) # desc sort on SH2 binding enrichment across 3 sequences Rank them, then answer with their labels in that order.
A) III, I, II

====

Molecular target: Hck (UniProt P08631)
Sequence (P08631 whole entry, looked up): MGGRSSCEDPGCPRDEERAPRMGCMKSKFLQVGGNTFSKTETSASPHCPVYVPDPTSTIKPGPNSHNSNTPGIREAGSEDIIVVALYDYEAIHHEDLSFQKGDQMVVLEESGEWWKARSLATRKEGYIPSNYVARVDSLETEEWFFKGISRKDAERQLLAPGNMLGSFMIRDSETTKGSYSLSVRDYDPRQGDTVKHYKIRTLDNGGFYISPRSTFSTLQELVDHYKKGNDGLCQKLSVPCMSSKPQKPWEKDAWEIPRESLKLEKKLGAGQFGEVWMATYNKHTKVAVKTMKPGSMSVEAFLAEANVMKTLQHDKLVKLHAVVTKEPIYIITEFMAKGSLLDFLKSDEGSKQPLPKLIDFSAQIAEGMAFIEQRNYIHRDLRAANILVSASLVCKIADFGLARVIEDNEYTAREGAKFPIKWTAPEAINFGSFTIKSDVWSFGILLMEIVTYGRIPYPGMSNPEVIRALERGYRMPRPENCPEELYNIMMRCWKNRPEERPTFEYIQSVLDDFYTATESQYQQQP
Experiment: phosphorylation enrichment, bacterial display (enrichment ratio); higher = better substrate or ligand; peptides without Tyr show the background
measured-endpoint: phosphorylation enrichment
No unit in the answer, only the number.

Worked cases, answers included:
SFSGEYGSGGG [ZG16_Y30_G32S_YF] : 0.496
FDGKEYDPVEA [MAPRE2_Y167_YF] : 0.617

# input for lookup
phosphorylation enrichment reading for RENGPYFTSFP [GDAP2_Y487_YF] : 0.49

====

Listed sequences paired with reported phosphorylation enrichment
System: c-Abl (mouse)
Experiment: phosphorylation enrichment, bacterial display (enrichment ratio); higher = better substrate or ligand; peptides without Tyr show the background
// return just the number, without any unit appended

Solved entries (count: 6):
DFSLKYPTDIP [APC_Y1183_A1184P_YF] : 0.702
ATARPYRPYII [LRP5_Y1528] : 0.688
FGGRDYSLDEF [MYOF_Y1705_YF] : 0.68
ETCLAYREKRI [TEKT1_Y118] : 0.503
SHTPSYCDEWL [RITA1_Y109_S113W] : 0.985
KAALSYVSEIG [BPIFB2_Y36] : 0.453

The value of phosphorylation enrichment measured for the sequence RLDGEYFTLQI [TP53_Y327_P322R] turned out to be 1.2

// recorded phosphorylation enrichment for TFGVAYRAKDK [CDK11B_Y453_V452A_YF] : 0.498

# phosphorylation enrichment (sequence: FDSPFYQDSLP [TSC1_Y508_R509Q] ) is 0.737

====

Target: EPHB2 (UniProt P29323)
Sequence (P29323 whole entry, looked up): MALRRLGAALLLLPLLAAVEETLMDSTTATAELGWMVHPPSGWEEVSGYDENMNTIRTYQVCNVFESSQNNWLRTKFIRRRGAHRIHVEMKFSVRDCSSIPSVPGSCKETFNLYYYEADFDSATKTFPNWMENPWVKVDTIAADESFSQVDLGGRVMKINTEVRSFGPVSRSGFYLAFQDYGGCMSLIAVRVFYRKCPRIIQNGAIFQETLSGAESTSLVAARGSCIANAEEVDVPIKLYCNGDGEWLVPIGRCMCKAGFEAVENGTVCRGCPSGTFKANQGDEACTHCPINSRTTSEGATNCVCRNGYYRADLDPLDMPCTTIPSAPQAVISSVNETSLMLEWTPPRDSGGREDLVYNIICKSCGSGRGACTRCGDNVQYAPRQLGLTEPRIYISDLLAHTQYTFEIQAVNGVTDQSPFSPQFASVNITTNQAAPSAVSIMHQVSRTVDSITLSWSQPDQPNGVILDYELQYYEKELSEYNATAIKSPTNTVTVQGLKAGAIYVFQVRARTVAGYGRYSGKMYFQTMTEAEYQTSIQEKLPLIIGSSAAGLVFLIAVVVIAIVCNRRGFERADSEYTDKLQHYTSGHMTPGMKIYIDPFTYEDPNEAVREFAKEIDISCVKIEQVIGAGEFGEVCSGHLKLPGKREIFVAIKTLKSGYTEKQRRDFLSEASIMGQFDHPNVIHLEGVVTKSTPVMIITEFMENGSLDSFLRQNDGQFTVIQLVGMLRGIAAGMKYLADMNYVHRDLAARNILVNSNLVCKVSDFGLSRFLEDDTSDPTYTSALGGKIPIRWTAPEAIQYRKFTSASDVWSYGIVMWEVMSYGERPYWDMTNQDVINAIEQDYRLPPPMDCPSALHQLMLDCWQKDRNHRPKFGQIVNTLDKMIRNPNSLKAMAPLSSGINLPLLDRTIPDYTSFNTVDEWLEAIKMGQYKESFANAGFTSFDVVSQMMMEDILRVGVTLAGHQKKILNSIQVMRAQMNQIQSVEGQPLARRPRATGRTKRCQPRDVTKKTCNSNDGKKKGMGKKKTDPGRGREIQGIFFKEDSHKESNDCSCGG
Experiment: phosphorylation enrichment, bacterial display (enrichment ratio); higher = better substrate or ligand; peptides without Tyr show the background
measured-endpoint: phosphorylation enrichment
Answer with a number only.

EGNEQYEGYCV [GRIA3_Y451_R450Q] : 0.592
DFPMGYPSYLA [TBCK_Y153_I151M] : 0.453
HNLDYYKETTN [FGFR3_Y648_K650E] : 0.857

Briefly, phosphorylation enrichment measured for PEADKYRLPYA [FGG_Y300_T303P] : 0.715

====

Test system: c-Abl (mouse)
Assay: phosphorylation enrichment, bacterial display (enrichment ratio); higher = better substrate or ligand; peptides without Tyr show the background
measured-endpoint: phosphorylation enrichment
Answer with a number only.

Worked cases, phosphorylation enrichment given:
PPNSPYMGSSP [KCNT1_Y740_I741M] : 0.782
LDFPEYDGVDR [CASQ1_Y43] : 1.48

Entry TVVVPYEPPEV [TP53_Y220_S215T] , tested on c-Abl (mouse), has a reported phosphorylation enrichment of 0.89
